# Tested on: HCV replicon cells
# TEST PROTOCOL: Cell-based HCV replicon assay (replicon RNA level by real time PCR, Taqman)
# CONDITION PARAMETERS: Hepatitis C virus, 72 h, HCV replicon cells, replicon RNA level by real time PCR, harvested day 3; read-out: EC90 (μM) range
This section presents compounds with their documented EC90 values.

These solved cases illustrate the format of a correct answer.
Cc1nc(C(N)=O)nc(N[C@@H]2C[C@H](CO)[C@@H](O)[C@H]2O)c1-c1nc2ccccc2s1    > 5 µM
Cc1nc(N[C@@H](c2ccc(OC(F)(F)F)cc2)C(F)(F)F)nc(N[C@@H]2C[C@H](CO)[C@@H](O)[C@H]2O)c1-c1nc2c(C)nccc2s1    < 0.5 µM
CCOc1cc2cc(-c3c(C)nc(NCC4CC4)nc3N[C@@H]3C[C@H](CNS(C)(=O)=O)[C@@H](O)[C@H]3O)oc2c(C)n1    < 0.5 µM
Cc1nc(N[C@H](C)c2cccc(F)c2)nc(N[C@@H]2C[C@H](CO)[C@@H](O)[C@H]2O)c1-c1nc2c(C)nccc2s1    < 0.5 µM
Cc1nc(NC2CCC2)nc(N[C@@H]2C[C@H](CO)[C@@H](O)[C@H]2O)c1-c1nc2c(C)nccc2s1    < 0.5 µM
Cc1nc(NCC(F)(F)F)nc(N[C@@H]2C[C@H](CO)N(C(=O)OC(C)(C)C)C2)c1-c1nc2ccccc2s1    > 5 µM
Cc1nc(NCC(F)(F)F)nc(N[C@@H]2CC[C@@H](O)[C@@]2(C)O)c1-c1nc2cnccc2s1    0.5 to 5 µM
COc1nc(C)c(-c2nc3ccccc3s2)c(N[C@@H]2C[C@H](CO)[C@@H](O)[C@H]2O)n1    0.5 to 5 µM
Cc1ccsc1CCNc1nc(C)c(-c2nc3ccccc3s2)c(N[C@@H]2C[C@H](CO)[C@@H](O)[C@H]2O)n1    0.5 to 5 µM
Cc1nc(NCC(F)(F)F)nc(NC2CCN(C(=O)OC(C)(C)C)C2)c1-c1nc2ccccc2s1 (centres unmarked)    0.5 to 5 µM

Exercise: What measured EC90 is associated with "Cc1nc(NCC(F)(F)F)nc(N[C@@H]2C[C@H](CNS(=O)(=O)CCN)[C@@H](O)[C@H]2O)c1-c1nc2ccccc2s1" on HCV replicon cells?
Key: > 5 µM

Exercise: What measured EC90 is associated with "Cc1nc(N(C)CC(F)(F)F)nc(N[C@@H]2C[C@H](CN(C)S(C)(=O)=O)[C@@H](O)[C@H]2O)c1-c1nc2ccccc2s1" on HCV replicon cells?
Key: > 5 µM

Exercise: What measured EC90 is associated with "Cc1ccc([C@@H](C)Nc2nc(C)c(-c3nc4c(OCC5CC5)nccc4s3)c(N[C@@H]3C[C@H](CO)[C@@H](O)[C@H]3O)n2)cc1" on HCV replicon cells?
Key: < 0.5 µM

Exercise: What measured EC90 is associated with "CCOCCNc1nc(C)c(-c2nc3c(C)nc(OCC)cc3s2)c(N[C@@H]2C[C@H](CO)[C@@H](O)[C@H]2O)n1" on HCV replicon cells?
Key: < 0.5 µM
